measurementDescription: Half life in rat liver microsomes after 30 mins by LC/MS/MS analysis
Format: ADME
observationType: half-life (min)

The following compounds have reported results that may help.
CCS(=O)(=O)Nc1cncc(-c2c(C#N)c3ccc(Cl)cc3n2C)c1: 176
Cn1c(-c2cccnc2)c(C#N)c2ccc(Cl)cc21: 47
Cn1c(-c2cccnc2)c(C#N)c2ccccc21: 30

(a) CCS(=O)(=O)NCc1cncc(-c2cc3ccc(Cl)nc3n2C)c1
(b) Cc1c(-c2cccnc2)n(C)c2ccccc12
(c) CCS(=O)(=O)NCc1cncc(-c2c(C#N)c3ccc(Cl)cc3n2C)c1
(d) CN(C)S(=O)(=O)Oc1cncc(-c2c(C#N)c3ccccc3n2C)c1
Query string: Ascending by half-life, please. Answer by listing the labels in the order asked for.
Result string: d, b, c, a
(d: 1 min, b: 5 min, c: 28 min, a: 40 min)

---

measurementDescription: Oral bioavailability in continuous angiotensin 2 infusion Sprague-Dawley rat model at 3 mg/kg
Assay type: ADME, organism-based
cond: in vivo
observationType: bioavailability (%)

CCS(=O)(=O)NCc1cncc(-c2c(C#N)c3ccc(Cl)cc3n2C)c1: 84
CCS(=O)(=O)NCc1cncc(-c2cc3ccc(Cl)nc3n2C)c1: 100

---

measurementDescription: Inhibition of CYP11B2 in cynomolgus monkey adrenal homogenates assessed as inhibition of aldosterone secretion
Type: tissue-based, Macaca fascicularis
observationType: IC50 (nM)

CCS(=O)(=O)NCc1cncc(-c2c(C#N)c3ccc(Cl)cc3n2C)c1: 10

(1) Cn1c(-c2cccnc2)c(C#N)c2ccccc21
(2) CCS(=O)(=O)NCc1cncc(-c2cc3ccc(Cl)nc3n2C)c1
Query string: Which value of IC50 is numerically greater: that of 1 or that of 2 ? Use the label to indicate which entry you chose.
Result string: 1

---

measurementDescription: Tmax in healthy human at 60 mg/kg, po bid
Type: ADME, organism-based
cond: in vivo
observationType: Tmax (h)
Please give a number only; it is taken to be in h.

Query string: Please look up its Tmax: CCS(=O)(=O)NCc1cncc(-c2c(C#N)c3ccc(Cl)cc3n2C)c1
Result string: 3

---

targetOfAssay: Cytochrome P450 11B2, mitochondrial (Homo sapiens, UniProt P19099)
Sequence (P19099 whole entry): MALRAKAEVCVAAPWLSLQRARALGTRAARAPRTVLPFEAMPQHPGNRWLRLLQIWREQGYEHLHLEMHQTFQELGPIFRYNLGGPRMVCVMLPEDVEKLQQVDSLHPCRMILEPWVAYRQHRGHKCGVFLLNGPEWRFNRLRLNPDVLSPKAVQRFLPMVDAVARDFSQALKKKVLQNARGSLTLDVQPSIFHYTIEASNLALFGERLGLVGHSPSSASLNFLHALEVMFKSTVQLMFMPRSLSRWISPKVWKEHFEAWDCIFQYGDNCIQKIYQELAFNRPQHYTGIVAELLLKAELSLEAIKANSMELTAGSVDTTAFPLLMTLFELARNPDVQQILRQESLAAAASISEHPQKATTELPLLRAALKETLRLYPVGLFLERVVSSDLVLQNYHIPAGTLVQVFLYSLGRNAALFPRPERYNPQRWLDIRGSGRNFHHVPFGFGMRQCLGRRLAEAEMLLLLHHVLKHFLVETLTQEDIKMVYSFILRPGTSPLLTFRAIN
measurementDescription: Inhibition of human recombinant CYP11B2 using 11-deoxycorticosterone as substrate after 2 hrs by scintillation proximity assay
observationType: IC50 (nM)

Cc1c(-c2cccnc2)n(C)c2ccccc12: 1.4

(P) Cc1c(-c2cccnc2)[nH]c2ccccc12
(Q) CCS(=O)(=O)Nc1cncc(-c2c(C#N)c3ccc(Cl)cc3n2C)c1
(R) CCS(=O)(=O)NCc1cncc(-c2cc3ccc(Cl)nc3n2C)c1
(S) CN(C)S(=O)(=O)Oc1cncc(-c2c(C#N)c3ccccc3n2C)c1
Query string: Ascending by IC50, please. Answer by listing the labels in the order asked for.
Result string: R, S, P, Q
(R: 1.1 nM, S: 2 nM, P: 3 nM, Q: 11 nM)

(1) Cn1c(-c2cccnc2)c(C#N)c2ccc(Cl)cc21
(2) Cn1c(-c2cccnc2)c(C#N)c2ccccc21
(3) CCS(=O)(=O)NCc1cncc(-c2cc3cnc(Cl)cc3n2C)c1
Query string: Ascending by IC50, please. Answer by listing the labels in the order asked for.
Result string: 1, 2, 3
(1: 2.5 nM, 2: 11 nM, 3: 22 nM)
